The compounds below have reported pIC50 for Aromatase (Homo sapiens).
The value called pIC50 is obtained by taking minus log10 of the concentration in mol/L.

[
  {
    "Substance Smiles": "CCOc1cc2c(cc1-c1cccnc1)CCC(=O)N2C",
    "pIC50": 7.32
  },
  {
    "Substance Smiles": "COc1cc2c(cc1-c1cccnc1)CCC(=O)N2",
    "pIC50": 6.35
  },
  {
    "Substance Smiles": "O=C1CCc2cc(-c3cccnc3)cc(Br)c2N1",
    "pIC50": 5.54
  },
  {
    "Substance Smiles": "O=C1CCc2cc(-c3cccnc3)cc(-c3ccccc3)c2N1",
    "pIC50": 6.40
  },
  {
    "Substance Smiles": "CN1C(=O)CCc2cc(-c3cccnc3)c(OC3CCCC3)cc21",
    "pIC50": 7.66
  }
]

Task: For "O=C1CCc2cc(-c3cccnc3)c(OC3CCCC3)cc2N1" , what is its reported pIC50?
Output: 6.79

Task: Look up pIC50 for this compound: "CN1C(=O)CCc2cc(-c3cccnc3)c(OCc3ccccc3)cc21"
Output: 7.96

Task: Requested read-out: pIC50. Entry: "O=C1CCc2cc(-c3cccnc3)c(O)cc2N1"
Output: 5.51
